Experiment: chemical genetic growth profiling, strain panel (AID 1159580);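 also: tested at 20 µM; growth read once vehicle control cultures reached saturation at 30 °C; 1 = growth at the plate median or of vehicle wells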
Conditions: S. cerevisiae deletion strains, growth OD, locus YOL078W, strain AVO1, hits give low values
Out of some 5,500 compounds screened, about 2,000 (36%) were called active. Another 18% or so got no clear call; they are omitted. Some of the results follow.
value-kind: normalized growth

Example entries begin here.
O=C(Oc1ccc2ccccc2c1C1SCCS1)c1ccc([N+](=O)[O-])o1: 0.962 (inactive)
CN(C)c1ccc(/C=C/c2ccc3ccccc3[n+]2C)cc1: 0.984 (inactive)
Clc1ccc(CSc2nccn2-c2cc(Cl)ccc2Cl)cc1: 0.962 (inactive)
C[C@@H](Nc1ncnc2sc3c(c12)CCCC3)c1ccccc1: 0.955 (inactive)
O=S(=O)(Nc1csc(C(F)(F)F)c1-c1ccccc1)c1cc(Br)c(Br)s1: 0.964 (inactive)

Field: normalized growth. Fill in for each record below.
1. Nc1ccccc1C(=O)Nc1cc(C(F)(F)F)cc(C(F)(F)F)c1
2. N#CC(C#N)=Cc1c(-c2ccccc2Cl)[nH]c2ccccc12

Response:
0.961 (inactive)
0.962 (inactive)

For every listed record, write down its normalized growth.
1. COc1ccc(-c2cn3cc(C)ccc3n2)cc1
2. CCOC(=O)c1sc(S(C)=NC(=O)Nc2ccc(Cl)cc2)c2c1CCC=C2 (stereo unspecified)
3. O=[N+]([O-])c1ccsc1Oc1cccc(C(F)(F)F)c1
4. Cc1ccc(S(=O)(=O)Nc2nc(-c3ccc(C)c(Cl)c3)c(C)s2)cc1
5. Cc1cccc(N=NC(C(=O)C(F)(F)F)=C(O)c2cccs2)c1

Response:
1. 0.978 (inactive)
2. 0.96 (inactive)
3. 0.93 (inactive)
4. 0.991 (inactive)
5. 0.988 (inactive)

I need normalized growth for every entry listed below, if you could help.
1. N/C(=N/O)c1ccc(Oc2ccc(C3SCCS3)cc2)c([N+](=O)[O-])c1
2. COc1ccc2c(c1)CCc1sc(NC(=O)c3ccco3)nc1-2
3. CC1=CC(=O)N(c2ccc(F)c(Cl)c2)C1=O
4. Clc1ccccc1-c1csc(-c2cccnc2)n1

Response:
0.978 (inactive)
0.961 (inactive)
0.966 (inactive)
0.89 (inactive)

* * *

Assay: chemical genetic growth profiling, strain panel (AID 1159580)
Details: S. cerevisiae deletion strains, growth OD, locus YLR370C, strain arc18
In all, about 5,500 compounds went through this assay and about 2,000 (36%) were called active. Another 18% or so got no clear call; they are omitted. Cut-off read from the data, not from the text of the source: active = normalized growth mostly below about 0.91 (no sharp cut-off); inconclusive = no clear call, values can overlap the other calls; inactive = mostly above about 0.92. The list shows a part of the results.
Bench note: report the call from 1.0 (active), 0.0 (inactive)

Clc1ccc(COC(Cn2ccnc2)c2ccc(Cl)cc2Cl)cc1 (stereo unspecified): 1.0
C[C@H]1C[C@@H](O)[C@]2(O)[C@@]13CC(=O)OC[C@@]2(C)[C@](C)(O)C(=O)C3: 0.0
CC(=O)O[C@H]1C[C@@]2(C)[C@@H](C[C@@H](O)C3[C@]2(C)CC[C@H]2[C@H](C)[C@H](O)CC[C@]32C)/C1=C(/CCC=C(C)C)C(=O)O (stereo partly specified): 0.0

Query: GET /call?item= NC(=O)CS(=O)C(c1ccccc1)c1ccccc1 (stereo unspecified) returns the recorded outcome of this test.
Response: 0.0

Query: What about this compound? "Clc1ccc(CO/N=C(/Cn2ccnc2)c2ccc(Cl)cc2Cl)c(Cl)c1"
Response: 1.0

Query: Also "FC(F)(F)c1cccc(N2CCNCC2)c1" , if possible.
Response: 0.0

Query: Consider next the compound CCC(=O)OC1[C@@H]2CC3=C4CC(=O)O[C@@H](c5ccoc5)[C@]4(C)CCC3[C@@](C)(C2=O)[C@@H](CC(=O)OC)C1(C)C (stereo partly specified) in the same way.
Response: 0.0

Query: Also need COC1C=CC23c4cc5c(cc4CN(CC2O)[C@@H]3C1)OCO5 (stereo partly specified) , thanks.
Response: 0.0

Query: Here is the next compound: "O=C(O)COc1ccc(Cl)cc1Cl"
Response: 0.0

Query: Ok, now "NCCCCCC(=O)O"
Response: 0.0

* * *

Assay: chemical genetic growth profiling, strain panel (AID 1159580)
Settings: S. cerevisiae deletion strains, growth OD, locus YJR066W, strain TOR1
Among all 5,500 compounds or so, about 2,000 (36%) were called active. Not shown: some 18% with an inconclusive outcome. No stated cut-off is given here; in the data, active means normalized growth mostly below about 0.91 (no sharp cut-off); inconclusive means no clear call, values can overlap the other calls; inactive means mostly above about 0.92. The list shows a part of the results.
// allowed return values: active, inactive

Clc1ccc(COC(Cn2ccnc2)c2ccc(Cl)cc2Cl)cc1 (stereo not drawn): active
CC1(C)N([O-])[N+](=O)C1(C)Br (stereo not drawn): inactive
N#CC(C#N)=Cc1c(-c2ccccc2Cl)[nH]c2ccccc12: inactive
CC(=O)N[C@@H](CCC(=O)O)C(=O)O: inactive
Clc1cccc(Nc2ncc(-c3ccc4c(c3)OCCCO4)s2)c1: inactive

Query compound follows.
Query: For "Clc1ccc(CO/N=C(/Cn2ccnc2)c2ccc(Cl)cc2Cl)c(Cl)c1" , what call appears in the results of this test?
Response: active

* * *

Assay: chemical genetic growth profiling, strain panel (AID 1159580);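 also: tested at 20 µM; growth read once vehicle control cultures reached saturation at 30 °C; 1 = growth at the plate median or of vehicle wells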
Details: S. cerevisiae deletion strains, growth OD, locus YML032C, strain rad52
In all, about 5,500 compounds went through this assay and about 2,000 (36%) were called active. Not shown: some 18% with an inconclusive outcome. No stated cut-off is given here; in the data, active means normalized growth mostly below about 0.91 (no sharp cut-off); inconclusive means no clear call, values can overlap the other calls; inactive means mostly above about 0.92. Some of the results follow.
Choose the fitting class; nothing outside active, inactive is accepted.

Worked cases, answers included:
COP(=S)(OC)Oc1ccc([N+](=O)[O-])cc1: inactive
CC(=O)O[C@]1(C)CC[C@@]23CC1C(C)(C)[C@@H]2CC[C@H]3C: inactive

Next, consider the following compound.
Query: Status in this test for CC(=O)C1CCC2C3CCC4C[C@H](O)CCC4(C)C3C[C@H](O)C12C (some centres not stated) ?
Response: inactive

* * *

Assay: chemical genetic growth profiling, strain panel (AID 1159580);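 also: tested at 20 µM; growth read once vehicle control cultures reached saturation at 30 °C; 1 = growth at the plate median or of vehicle wells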
Settings: S. cerevisiae deletion strains, growth OD, locus YEL003W, strain gim4, hits give low values
In all, about 5,500 compounds went through this assay and about 2,000 (36%) were called active. Roughly 18% stayed inconclusive and do not appear here. The list shows a part of the results.
Kindly apply the following: T if normalized growth is less than 1, F in every other case.

The examples below pair each entry with its known result.
O=C(O)[C@@H](S)[C@@H](S)C(=O)O: T
C[C@H]1C[C@@H](O)[C@]2(O)[C@@]13CC(=O)OC[C@@]2(C)[C@](C)(O)C(=O)C3: F

API: the following record is the query input.
Query: Does "COc1cc(NS(C)(=O)=O)ccc1Cc1c2ccccc2nc2ccccc12" have normalized growth strictly under 1?
Response: T

* * *

Test: chemical genetic growth profiling, strain panel (AID 1159580);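 also: tested at 20 µM; growth read once vehicle control cultures reached saturation at 30 °C; 1 = growth at the plate median or of vehicle wells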
Settings: S. cerevisiae deletion strains, growth OD, locus YOR231W, strain MKK1, hits give low values
The campaign covered roughly 5,500 compounds. About 2,000 (36%) were called active. About 18% were inconclusive and are not listed. This is one part of the list.
value-kind: normalized growth
Answers are plain numbers.

Example entries and their recorded answers appear below.
COc1ccc(-c2csc(-c3cccnc3)n2)cc1: 0.906
O=C(O)C(O)C(O)C(=O)O (stereo unspecified): 0.959
CC(=O)O[C@@H]1CC2C(C)(C)[C@@H](O)CC[C@]2(C)C2CC[C@@]3(C)[C@H](c4ccoc4)OC(=O)[C@H]4O[C@]43[C@@]21C (stereo partly specified): 0.998
CC(=O)C1CC[C@H]2C3CC[C@H]4C[C@H](O)CC[C@]4(C)C3CC[C@]12C (stereo partly specified): 0.996
COc1ccc(-c2cn3cc(C)ccc3n2)cc1: 0.959
C=CCS(=O)C[C@H](N)C(=O)O (stereo partly specified): 1.01
Oc1c(Cl)cc(Cl)c(Cl)c1Cc1c(O)c(Cl)cc(Cl)c1Cl: 0.112
CC1[C@H](C)OC(=O)CC(O)CC(O)CC(O)CCC(O)C(O)C[C@]2(O)CC(O)C(C(=O)O)C(CC(OC3O[C@H](C)[C@@H](O)[C@H](N)[C@@H]3O)/C=C/C=C/C=C/C=C/CC/C=C/C=C/[C@H](C)[C@H]1O)O2 (stereo partly specified): 0.105

Batch request: normalized growth per item, same order as input.
1. Clc1ccccc1-c1csc(-c2ccncc2)n1
2. CC(=O)O[C@H]1C[C@@H](OC(C)=O)C(C)(C)C2C[C@@H](OC(C)=O)[C@]3(C)C(CC[C@@]4(C)[C@H](c5ccoc5)OC(=O)[C@H]5O[C@]543)[C@]21C (stereo partly specified)
3. c1ccc2c(CC3=NCCN3)cccc2c1
4. CNC(=O)Sc1c(-c2ccc(Cl)cc2)nn(C(=O)NC)c1SC
5. O=C(Nc1ccncc1)c1cc(-c2ccccc2)oc1C(F)(F)F
6. CC(=O)O[C@@H]1CC2C(C)(C)C(=O)C3OC3[C@]2(C)C2CC[C@@]3(C)[C@H](c4ccoc4)OC(=O)C4OC43[C@@]21C (stereo partly specified)
7. CC(=O)O[C@@H]1CC2C(C)(C)[C@H](O)C=C[C@]2(C)C2CC[C@@]3(C)[C@H](c4ccoc4)OC(=O)C4OC43[C@@]21C (stereo partly specified)

Response:
1: 0.988; 2: 0.987; 3: 1.02; 4: 0.315; 5: 0.908; 6: 0.986; 7: 0.945

Values from PubChem BioAssay AID1159580
